Molecular target: TLR1/TLR2 (Mus musculus, UniProt Q9EPQ1+Q9QUN7)
Sequence (Q9EPQ1 26-795): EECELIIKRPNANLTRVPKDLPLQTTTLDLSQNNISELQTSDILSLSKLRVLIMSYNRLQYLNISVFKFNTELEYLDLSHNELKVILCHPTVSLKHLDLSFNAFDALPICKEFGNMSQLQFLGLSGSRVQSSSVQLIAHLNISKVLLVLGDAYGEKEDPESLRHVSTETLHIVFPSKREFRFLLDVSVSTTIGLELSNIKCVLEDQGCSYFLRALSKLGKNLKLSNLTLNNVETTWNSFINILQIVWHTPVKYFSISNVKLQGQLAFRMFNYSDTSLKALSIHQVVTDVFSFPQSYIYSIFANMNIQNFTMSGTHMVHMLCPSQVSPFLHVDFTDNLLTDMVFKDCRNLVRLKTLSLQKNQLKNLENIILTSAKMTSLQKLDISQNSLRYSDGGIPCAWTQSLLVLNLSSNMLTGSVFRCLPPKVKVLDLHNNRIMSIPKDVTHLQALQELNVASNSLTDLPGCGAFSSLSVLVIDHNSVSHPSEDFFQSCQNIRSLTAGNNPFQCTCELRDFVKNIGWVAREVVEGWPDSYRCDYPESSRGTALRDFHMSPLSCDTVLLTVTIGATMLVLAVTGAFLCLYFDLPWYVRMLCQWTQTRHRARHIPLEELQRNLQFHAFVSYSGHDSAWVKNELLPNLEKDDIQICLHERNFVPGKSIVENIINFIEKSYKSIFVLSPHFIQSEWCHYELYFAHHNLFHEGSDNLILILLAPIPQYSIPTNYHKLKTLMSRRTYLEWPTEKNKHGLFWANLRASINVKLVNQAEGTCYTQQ
Sequence (Q9QUN7 25-784): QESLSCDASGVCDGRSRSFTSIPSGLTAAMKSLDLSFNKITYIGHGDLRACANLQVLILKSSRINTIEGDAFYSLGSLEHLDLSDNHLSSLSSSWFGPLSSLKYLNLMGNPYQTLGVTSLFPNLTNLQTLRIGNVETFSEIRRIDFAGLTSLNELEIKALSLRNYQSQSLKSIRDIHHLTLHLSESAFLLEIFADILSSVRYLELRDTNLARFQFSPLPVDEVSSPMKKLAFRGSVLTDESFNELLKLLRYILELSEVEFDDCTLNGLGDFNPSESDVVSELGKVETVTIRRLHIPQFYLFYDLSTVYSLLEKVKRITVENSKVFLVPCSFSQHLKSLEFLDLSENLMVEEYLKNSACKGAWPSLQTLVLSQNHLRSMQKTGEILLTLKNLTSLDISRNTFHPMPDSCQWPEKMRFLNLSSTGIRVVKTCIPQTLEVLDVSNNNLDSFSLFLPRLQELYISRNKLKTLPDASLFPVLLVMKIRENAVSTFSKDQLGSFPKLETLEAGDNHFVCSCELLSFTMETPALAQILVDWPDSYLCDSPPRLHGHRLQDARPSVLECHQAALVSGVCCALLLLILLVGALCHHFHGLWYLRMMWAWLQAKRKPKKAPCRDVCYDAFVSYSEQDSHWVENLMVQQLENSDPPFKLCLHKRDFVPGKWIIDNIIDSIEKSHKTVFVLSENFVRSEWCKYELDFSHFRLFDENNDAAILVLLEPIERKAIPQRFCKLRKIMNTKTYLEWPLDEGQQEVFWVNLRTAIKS
Experiment: TNF-α release from thioglycolate-elicited mouse peritoneal macrophages (ELISA)
Details: 4 h, read-out: Efficacy (magnitude) of response versus diprovocim-1 (100%), mouse macrophages
parameter: Emax (%)

Sample answers from the record:
COC(=O)CNC(=O)OCCCCCCCCCCCCNC(=O)[C@@H]1CN(C(=O)c2ccc(C(=O)N3C[C@@H](C(=O)N[C@H]4C[C@@H]4c4ccccc4)[C@H](C(=O)N[C@H]4C[C@@H]4c4ccccc4)C3)cc2)C[C@H]1C(=O)N[C@H]1C[C@@H]1c1ccccc1	90
O=C(O)/C=C/C(=O)NCC(=O)OCCCCCCCCCCCCNC(=O)[C@@H]1CN(C(=O)c2ccc(C(=O)N3C[C@@H](C(=O)N[C@H]4C[C@@H]4c4ccccc4)[C@H](C(=O)N[C@H]4C[C@@H]4c4ccccc4)C3)cc2)C[C@H]1C(=O)N[C@H]1C[C@@H]1c1ccccc1	60
C#CCCCCCCCCCCCCNC(=O)[C@@H]1CN(C(=O)c2ccc(C(=O)N3C[C@@H](C(=O)N[C@H]4C[C@@H]4c4ccccc4)[C@H](C(=O)N[C@H]4C[C@@H]4c4ccccc4)C3)cc2)C[C@H]1C(=O)N[C@H]1C[C@@H]1c1ccccc1	180
CC(C)(C)OC(=O)N[C@@H](CCCCNC(=O)OCC1c2ccccc2-c2ccccc21)C(=O)OCCCCCCCCCCCCNC(=O)[C@@H]1CN(C(=O)c2ccc(C(=O)N3C[C@@H](C(=O)N[C@H]4C[C@@H]4c4ccccc4)[C@H](C(=O)N[C@H]4C[C@@H]4c4ccccc4)C3)cc2)C[C@H]1C(=O)N[C@H]1C[C@@H]1c1ccccc1	200
[N-]=[N+]=NCC(=O)OCCCCCCCCCCCCNC(=O)[C@@H]1CN(C(=O)c2ccc(C(=O)N3C[C@@H](C(=O)N[C@H]4C[C@@H]4c4ccccc4)[C@H](C(=O)N[C@H]4C[C@@H]4c4ccccc4)C3)cc2)C[C@H]1C(=O)N[C@H]1C[C@@H]1c1ccccc1	120

(I) CNC(=O)CCCCCCCCCCCNC(=O)[C@@H]1CN(C(=O)c2ccc(C(=O)N3C[C@@H](C(=O)N[C@H]4C[C@@H]4c4ccccc4)[C@H](C(=O)N[C@H]4C[C@@H]4c4ccccc4)C3)cc2)C[C@H]1C(=O)N[C@H]1C[C@@H]1c1ccccc1
(II) CC(C)(C)OC(=O)NC1(C(=O)OCCCCCCCCCCCCNC(=O)[C@@H]2CN(C(=O)c3ccc(C(=O)N4C[C@@H](C(=O)N[C@H]5C[C@@H]5c5ccccc5)[C@H](C(=O)N[C@H]5C[C@@H]5c5ccccc5)C4)cc3)C[C@H]2C(=O)N[C@H]2C[C@@H]2c2ccccc2)CC1
Lab log: flag the item ( I or II ) with the smaller Emax figure. Pick one; state its label.
I
(I: 150%, II: 220%)

---

Molecular target: TLR1/TLR2 (Homo sapiens, UniProt O60603+Q15399)
Sequence (Q15399 25-786): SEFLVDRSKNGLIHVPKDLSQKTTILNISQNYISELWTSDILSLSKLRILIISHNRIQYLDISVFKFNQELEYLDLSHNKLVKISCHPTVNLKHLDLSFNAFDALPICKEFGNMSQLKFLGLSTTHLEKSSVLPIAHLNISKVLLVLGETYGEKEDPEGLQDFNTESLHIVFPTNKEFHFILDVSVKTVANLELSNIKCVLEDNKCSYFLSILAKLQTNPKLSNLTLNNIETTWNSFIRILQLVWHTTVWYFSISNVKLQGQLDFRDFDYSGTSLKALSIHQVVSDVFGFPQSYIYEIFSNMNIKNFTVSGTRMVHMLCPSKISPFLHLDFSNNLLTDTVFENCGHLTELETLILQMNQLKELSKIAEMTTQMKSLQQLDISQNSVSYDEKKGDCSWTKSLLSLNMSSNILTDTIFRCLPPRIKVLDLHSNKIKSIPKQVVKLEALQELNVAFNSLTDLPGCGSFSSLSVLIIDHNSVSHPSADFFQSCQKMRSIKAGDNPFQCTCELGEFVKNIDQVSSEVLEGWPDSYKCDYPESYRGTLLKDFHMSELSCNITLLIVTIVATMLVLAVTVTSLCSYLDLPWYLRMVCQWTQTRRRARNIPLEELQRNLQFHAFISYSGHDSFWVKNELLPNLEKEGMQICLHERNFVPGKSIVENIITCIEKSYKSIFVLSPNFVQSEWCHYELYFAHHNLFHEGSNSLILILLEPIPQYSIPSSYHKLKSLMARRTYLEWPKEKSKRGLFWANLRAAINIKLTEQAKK
Sequence (O60603 21-784): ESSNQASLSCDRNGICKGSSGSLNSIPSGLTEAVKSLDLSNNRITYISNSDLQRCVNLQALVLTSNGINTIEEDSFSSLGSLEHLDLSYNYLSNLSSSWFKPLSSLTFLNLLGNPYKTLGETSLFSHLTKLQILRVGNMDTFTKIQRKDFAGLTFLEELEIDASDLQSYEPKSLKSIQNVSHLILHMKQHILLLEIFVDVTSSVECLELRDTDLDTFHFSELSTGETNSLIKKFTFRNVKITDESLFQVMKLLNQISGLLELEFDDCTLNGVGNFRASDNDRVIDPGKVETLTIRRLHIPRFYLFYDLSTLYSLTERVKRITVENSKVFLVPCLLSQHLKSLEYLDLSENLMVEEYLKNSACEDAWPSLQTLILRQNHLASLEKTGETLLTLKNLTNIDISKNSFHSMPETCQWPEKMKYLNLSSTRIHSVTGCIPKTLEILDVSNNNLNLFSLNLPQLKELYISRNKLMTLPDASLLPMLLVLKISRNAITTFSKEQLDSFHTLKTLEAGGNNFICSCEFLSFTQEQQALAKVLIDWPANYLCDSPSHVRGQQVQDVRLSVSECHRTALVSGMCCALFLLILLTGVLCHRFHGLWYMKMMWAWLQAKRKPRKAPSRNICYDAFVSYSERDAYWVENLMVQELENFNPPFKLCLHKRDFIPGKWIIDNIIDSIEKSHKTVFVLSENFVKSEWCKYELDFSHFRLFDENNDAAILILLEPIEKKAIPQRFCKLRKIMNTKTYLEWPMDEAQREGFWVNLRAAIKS
Test: TNF-α release from PMA-differentiated human THP-1 cells (ELISA)
Details: THP-1, 4 h, read-out: Efficacy (magnitude) of response versus diprovocim-1 (100%), THP-1
parameter: Emax (%)

CC(C)(C)OC(=O)COCCCCCCCCCCCCNC(=O)[C@@H]1CN(C(=O)c2ccc(C(=O)N3C[C@@H](C(=O)N[C@H]4C[C@@H]4c4ccccc4)[C@H](C(=O)N[C@H]4C[C@@H]4c4ccccc4)C3)cc2)C[C@H]1C(=O)N[C@H]1C[C@@H]1c1ccccc1 [Compound 49]	100

(P) CC(C)(C)C(=O)NCC(=O)OCCCCCCCCCCCCNC(=O)[C@@H]1CN(C(=O)c2ccc(C(=O)N3C[C@@H](C(=O)N[C@H]4C[C@@H]4c4ccccc4)[C@H](C(=O)N[C@H]4C[C@@H]4c4ccccc4)C3)cc2)C[C@H]1C(=O)N[C@H]1C[C@@H]1c1ccccc1 [Compound 42]
(Q) [N-]=[N+]=NCCCCCCCCCCCCNC(=O)[C@@H]1CN(C(=O)c2ccc(C(=O)N3C[C@@H](C(=O)N[C@H]4C[C@@H]4c4ccccc4)[C@H](C(=O)N[C@H]4C[C@@H]4c4ccccc4)C3)cc2)C[C@H]1C(=O)N[C@H]1C[C@@H]1c1ccccc1 [Compound 20]
Emax comparison. Which is larger, P or Q ? Your choice should be expressed through its label.
P

(A) O=C(O)c1ccc(C(=O)OCCCCCCCCCCCCNC(=O)[C@@H]2CN(C(=O)c3ccc(C(=O)N4C[C@@H](C(=O)N[C@H]5C[C@@H]5c5ccccc5)[C@H](C(=O)N[C@H]5C[C@@H]5c5ccccc5)C4)cc3)C[C@H]2C(=O)N[C@H]2C[C@@H]2c2ccccc2)cc1 [Compound 78]
(B) C#CCN(C)CC(=O)OCCCCCCCCCCCCNC(=O)[C@@H]1CN(C(=O)c2ccc(C(=O)N3C[C@@H](C(=O)N[C@H]4C[C@@H]4c4ccccc4)[C@H](C(=O)N[C@H]4C[C@@H]4c4ccccc4)C3)cc2)C[C@H]1C(=O)N[C@H]1C[C@@H]1c1ccccc1 [Compound 53]
Rank A against B by their Emax values and give the higher one. State your choice using its label.
A

---

Target: TLR1/TLR2 (Homo sapiens, UniProt O60603+Q15399)
Assay: TNF-α release from PMA-differentiated human THP-1 cells (ELISA)
Details: THP-1, 4 h, read-out: Efficacy (magnitude) of response versus diprovocim-1 (100%), THP-1
parameter: Emax (%)

CC(C)(C)OC(=O)/C=C/C(=O)NCC(=O)OCCCCCCCCCCCCNC(=O)[C@@H]1CN(C(=O)c2ccc(C(=O)N3C[C@@H](C(=O)N[C@H]4C[C@@H]4c4ccccc4)[C@H](C(=O)N[C@H]4C[C@@H]4c4ccccc4)C3)cc2)C[C@H]1C(=O)N[C@H]1C[C@@H]1c1ccccc1 [Compound 81]	90
COC(=O)CCOCCOCCOCCNC(=O)[C@@H]1CN(C(=O)c2ccc(C(=O)N3C[C@@H](C(=O)N[C@H]4C[C@@H]4c4ccccc4)[C@H](C(=O)N[C@H]4C[C@@H]4c4ccccc4)C3)cc2)C[C@H]1C(=O)N[C@H]1C[C@@H]1c1ccccc1 [Compound 29]	110
O=C(O)CNC(=O)CCCCCCCCCCCNC(=O)[C@@H]1CN(C(=O)c2ccc(C(=O)N3C[C@@H](C(=O)N[C@H]4C[C@@H]4c4ccccc4)[C@H](C(=O)N[C@H]4C[C@@H]4c4ccccc4)C3)cc2)C[C@H]1C(=O)N[C@H]1C[C@@H]1c1ccccc1 [Compound 15]	110
NC(=O)CCCCCCCCCCCNC(=O)[C@@H]1CN(C(=O)c2ccc(C(=O)N3C[C@@H](C(=O)N[C@H]4C[C@@H]4c4ccccc4)[C@H](C(=O)N[C@H]4C[C@@H]4c4ccccc4)C3)cc2)C[C@H]1C(=O)N[C@H]1C[C@@H]1c1ccccc1 [Compound 12]	110
O=C(NCCCCCCCCCCCCO)[C@@H]1CN(C(=O)c2ccc(C(=O)N3C[C@@H](C(=O)N[C@H]4C[C@@H]4c4ccccc4)[C@H](C(=O)N[C@H]4C[C@@H]4c4ccccc4)C3)cc2)C[C@H]1C(=O)N[C@H]1C[C@@H]1c1ccccc1 [Compound 7]	90
CC(C)(C)OC(=O)c1ccc(C(=O)NCCOCCCCCCCCCCCCNC(=O)[C@@H]2CN(C(=O)c3ccc(C(=O)N4C[C@@H](C(=O)N[C@H]5C[C@@H]5c5ccccc5)[C@H](C(=O)N[C@H]5C[C@@H]5c5ccccc5)C4)cc3)C[C@H]2C(=O)N[C@H]2C[C@@H]2c2ccccc2)cc1 [Compound 85]	110
CC(C)[C@H](NC(=O)OC(C)(C)C)C(=O)OCCCCCCCCCCCCNC(=O)[C@@H]1CN(C(=O)c2ccc(C(=O)N3C[C@@H](C(=O)N[C@H]4C[C@@H]4c4ccccc4)[C@H](C(=O)N[C@H]4C[C@@H]4c4ccccc4)C3)cc2)C[C@H]1C(=O)N[C@H]1C[C@@H]1c1ccccc1 [Compound 59]	100
Nc1ccc(C(=O)OCCCCCCCCCCCCNC(=O)[C@@H]2CN(C(=O)c3ccc(C(=O)N4C[C@@H](C(=O)N[C@H]5C[C@@H]5c5ccccc5)[C@H](C(=O)N[C@H]5C[C@@H]5c5ccccc5)C4)cc3)C[C@H]2C(=O)N[C@H]2C[C@@H]2c2ccccc2)cc1 [Compound 74]	100

---

Target: TLR1/TLR2 (Homo sapiens, UniProt O60603+Q15399)
Assay: TNF-α release from PMA-differentiated human THP-1 cells (ELISA);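 further: cells exposed to graded compound concentrations for 4 h, TNF-α quantified in supernatant, LPS as positive and DMSO as negative control, values are duplicate means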
Details: read-out: EC50 (nM) (THP-1): EC50 TNF-α release from human THP-1 cells; Table 6
parameter: EC50 (nM)

Record excerpt, results attached:
CC(C)(C)OC(=O)NCC(=O)OCCCCCCCCCCCCNC(=O)[C@@H]1CN(C(=O)c2ccc(C(=O)N3C[C@@H](C(=O)N[C@H]4C[C@@H]4c4ccccc4)[C@H](C(=O)N[C@H]4C[C@@H]4c4ccccc4)C3)cc2)C[C@H]1C(=O)N[C@H]1C[C@@H]1c1ccccc1	0.14
CC(C)(C)OC(=O)Nc1ccc(C(=O)OCCCCCCCCCCCCNC(=O)[C@@H]2CN(C(=O)c3ccc(C(=O)N4C[C@@H](C(=O)N[C@H]5C[C@@H]5c5ccccc5)[C@H](C(=O)N[C@H]5C[C@@H]5c5ccccc5)C4)cc3)C[C@H]2C(=O)N[C@H]2C[C@@H]2c2ccccc2)cc1	0.57
O=C(CNC(=O)c1ccc(C(=O)O)cc1)OCCCCCCCCCCCCNC(=O)[C@@H]1CN(C(=O)c2ccc(C(=O)N3C[C@@H](C(=O)N[C@H]4C[C@@H]4c4ccccc4)[C@H](C(=O)N[C@H]4C[C@@H]4c4ccccc4)C3)cc2)C[C@H]1C(=O)N[C@H]1C[C@@H]1c1ccccc1	0.17

(a) CC(C)(C)OC(=O)c1ccc(C(=O)OCCCCCCCCCCCCNC(=O)[C@@H]2CN(C(=O)c3ccc(C(=O)N4C[C@@H](C(=O)N[C@H]5C[C@@H]5c5ccccc5)[C@H](C(=O)N[C@H]5C[C@@H]5c5ccccc5)C4)cc3)C[C@H]2C(=O)N[C@H]2C[C@@H]2c2ccccc2)cc1
(b) CC(C)(C)OC(=O)c1ccc(C(=O)NCC(=O)OCCCCCCCCCCCCNC(=O)[C@@H]2CN(C(=O)c3ccc(C(=O)N4C[C@@H](C(=O)N[C@H]5C[C@@H]5c5ccccc5)[C@H](C(=O)N[C@H]5C[C@@H]5c5ccccc5)C4)cc3)C[C@H]2C(=O)N[C@H]2C[C@@H]2c2ccccc2)cc1
Hello, I am sorting some records. Could you say if a or b has the smaller EC50 value? Answer by quoting the chosen item's label.
b
(b: 6.6 nM, a: 165 nM)
